Recorded values, source the supplement of paper PMC11451515.

# System: NOMO1
# Method Summary: cell viability relative to DMSO control; higher = less cytotoxic
# Experimental Setup: HPLM + 10% dialyzed FBS; 48 h; 46.1 µM
In this section, each of the compounds is paired with its reported cell viability.
// units = %; emit number, no label

> print(dat)
                                   compound          metric  recorded.value
1  O=C(O)C1(Cc2cccc(Nc3nccs3)n2)CCC(Oc2cccc(Cl)c2F)CC1 (configuration not stated)  cell viability            35.5
2  CCN(CC)CCCCNc1ncc2cc(-c3cc(OC)cc(OC)c3)c(NC(=O)NC(C)(C)C)nc2n1  cell viability            33.2

Which measured cell viability belongs to CN1CCN(C2=Nc3cc(Cl)ccc3Nc3ccccc32)CC1 , tested on NOMO1?
59.3

Which measured cell viability belongs to O=C1[C@H](Cc2ccc(O)cc2)N2C(=O)CCN(C(=O)NCc3ccccc3)[C@H]2CN1Cc1cccc2ccccc12 , tested on NOMO1?
74

Which measured cell viability belongs to OC(c1cc(C(F)(F)F)nc2c(C(F)(F)F)cccc12)C1CCCCN1 (configuration not stated) , tested on NOMO1?
8.46

Which measured cell viability belongs to CCOC(=O)[C@@H](N)Cc1ccc(-c2cc(O[C@H](c3ccc(Cl)cc3-n3ccc(C)n3)C(F)(F)F)nc(N)n2)cc1.O=C(O)CNC(=O)c1ccccc1 , tested on NOMO1?
5.68

Which measured cell viability belongs to CN(C)[S+](=O)([O-])c1ccc2c(c1)C(=Cc1cc3c([nH]1)CCCC3)C(=O)N2 , tested on NOMO1?
118
